target: T1, naked peptide KNNVRQFAS (human); assay: ELISA naked peptide; scFv 1 ug/mL; repII
T1 peptide: KNNVRQFAS
metric_name: OD450

Please review the following examples before continuing.
# binder, OD450
measured = [
    ("Comparative antibody 3 (Comp-3) scFv, SR_92R (Somovilla-Crespo et al. 2018), His-tagged (scFv) scFv: EVKLEESGGGLVQPGGSMKLSCVASGFTFNKFWMNWVRQSPEKGLEWVAEIRLKSNNYATHYAESVKGRFTISRDDSKSSVYLQMNNLRAEDTGIYYCASDGWFAYWGQGTLVTVSAGGGGSGGGGSGGGGSGGGGSDVVMTQTPLSLPVSLGDQASISCRSSQSLVHSNGNTYLNWCLQRPGQSPKSLIYKVSNRFSGVPDRFSGSGSGTDFTLKISRVEAEDLGVYFCSQSTHFPRTFGGGTKLEIKRHHHHHH", "0.04 OD"),
    ("Comparative antibody 2 (Comp-2) scFv, 243LO326 (VH SEQ ID NO: 51 and VL SEQ ID NO: 52 of WO 2022/195028 A2), His-tagged (scFv) scFv: QVQLVQSGAEVKKPGASVKVSCKASGYTFTSYWMHWVRQAPGQGLEWIGVIYPGNSDTRYNQKFKGRVTITRDTSASTAYMELSSLRSEDTAVYYCTRDYYSNYVYYYAMDYWGQGTTVTVSSGGGGSGGGGSGGGGSGGGGSDIVMTQTPLSLPVTPGEPASISCRSSQSLVHPNRNTYLHWYLQKPGQSPQLLIYKVSNRFSGVPDRFSGSGSGTDFTLKISRVEAEDVGVYYCSQSTHVPWTFGQGTKLEIKHHHHHH", "0.04 OD"),
    ("Comparative antibody 1 (Comp-1) scFv, SEQ ID NO: 10 from WO2023/037125 A1, His-tagged (scFv) scFv: QVQLKESGPGLVQPSQTLSLTCTVSGFSVASYDMHWVRLPPGKGLEWMGIIWANGNTHYNSGLKSRLSISRDTSKSQVFLKMNSLQTEDTAIYFCTRGGFAYWGQGTLVTVSSGGGGSGGGGSGGGGSGGGGSDVVMTQTPVSLSVSLGGQVSISCRSSQSLVHNNGNTYLSWYLQKPGQSPQLLIYKVSNRFSGVSDRFSGSGSGTDFTLKISRVEPDDLGVYYCGQGTQYPTFGGGTKLELKHHHHHH", "0.02 OD"),
]

Kindly consider the entry below.
So for CCR9_HUM2 scFv (humanized anti-CCR9 scFv, SEQ ID NO: 17 with C-terminal 6xHis tag) (scFv) scFv: QVQLVQSGAEVKKPGASVKVSCTASGYSFTDYIIYWVKQAHGQSLEWMGYIDPNNYNTRYSQKFQGKVTITVDKSSTSAYMELNSLTSDDTAVYYCARDVYWGQGTTVTVSSGGGGSGGGGSGGGGSGGGGSDVVMTQTPLSLSVTPGQPASISCRSSQSLVHSNGKTYLQWYLQKPGQSPKLLIYKVSNRFSGVPDRFSGSGSGTDFTLKISRVEAEDVGVYFCAQSTHVWTFGGGTKVEIKRAHHHHHH , the logged OD450 turned out to be 0.03 OD
